# measurement.target: IA^s (Mus musculus, UniProt P06345+P14437)
# Construct: Various cell lines were used as sources of purified human and mouse class II molecules; endogenous in cells
# Sequence (P14437 whole entry): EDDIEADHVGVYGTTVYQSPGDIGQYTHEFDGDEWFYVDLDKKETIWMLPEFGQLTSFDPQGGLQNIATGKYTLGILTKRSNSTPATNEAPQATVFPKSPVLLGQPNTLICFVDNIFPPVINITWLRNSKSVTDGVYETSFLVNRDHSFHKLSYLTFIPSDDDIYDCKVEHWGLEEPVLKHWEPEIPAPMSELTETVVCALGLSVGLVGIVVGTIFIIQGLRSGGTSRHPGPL
# Sequence (P06345 28-263): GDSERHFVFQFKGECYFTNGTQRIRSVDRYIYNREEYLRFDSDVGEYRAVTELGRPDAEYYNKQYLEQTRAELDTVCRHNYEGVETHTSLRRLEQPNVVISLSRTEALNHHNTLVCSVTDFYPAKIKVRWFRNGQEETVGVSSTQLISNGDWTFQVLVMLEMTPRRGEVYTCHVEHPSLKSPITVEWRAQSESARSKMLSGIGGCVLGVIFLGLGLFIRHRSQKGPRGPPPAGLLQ
# assay.summary: biochemical
# experimental.conditions: Table III; read-out: Capacity to bind purified IA^s, IC50
measurement.kind: IC50 (µM)
Could you give me the number in µM? Just the number is fine.

>  <molecule.smiles>
CC[C@H](C)[C@H](N)C(=O)N[C@@H](CO)C(=O)N[C@@H](CCC(N)=O)C(=O)N[C@@H](C)C(=O)N[C@H](C(=O)N[C@@H](Cc1c[nH]cn1)C(=O)N[C@@H](C)C(=O)N[C@@H](C)C(=O)N[C@@H](Cc1c[nH]cn1)C(=O)N[C@@H](C)C(=O)N[C@@H](CCC(=O)O)C(=O)N[C@H](C(=O)N[C@@H](CC(N)=O)C(=O)N[C@@H](CCC(=O)O)C(=O)O)[C@@H](C)CC)C(C)C

>  <assay.value>
1.04

$$$$

Below: the item to evaluate.
The compound identified as CC(C)C[C@H](NC(=O)[C@H](Cc1c[nH]c2ccccc12)NC(=O)[C@H](CCCCN)NC(=O)CNC(=O)[C@H](CC(C)C)NC(=O)[C@H](CO)NC(=O)[C@@H](N)Cc1c[nH]cn1)C(=O)NCC(=O)N[C@@H](Cc1c[nH]cn1)C(=O)N1CCC[C@H]1C(=O)N[C@@H](CC(=O)O)C(=O)N[C@@H](CCCCN)C(=O)N[C@@H](Cc1ccccc1)C(=O)O registered its IC50 at 0.086

====

Entries and their measured IC50 follow.
# System: DR5
# experimental.conditions: read-out: PADRE Class II Binding Affinities DR5; Table VIII A
Non-standard residues stand in square brackets, D forms with d. Residues, ends and D or L forms follow the SMILES beside them. Cha = N[C@@H](CC1CCCCC1)C(=O)O
// return numeric value only (unit: nM, not printed)

Example entries and their recorded answers appear below.
>  <molecule>
CC(C)C[C@H](NC(=O)[C@@H](NC(=O)[C@@H](NC(=O)[C@H](C)NC(=O)[C@H](C)NC(=O)[C@H](C)NC(=O)[C@H](CC1CCCCC1)NC(=O)[C@H](C)NC(=O)[C@@H](C)N)C(C)C)[C@@H](C)O)C(=O)N[C@@H](CCCCN)C(=O)N[C@@H](C)C(=O)N[C@@H](C)C(=O)N[C@H](C)C(N)=O [Peptide 906.26] (H-[dA]A[Cha]AAAVTLKAA[dA]-NH2; N-terminus and C-terminus assumed)

>  <measurement.kind>
IC50

>  <assay.value>
3.9

$$$$
>  <molecule>
CC(C)C[C@H](NC(=O)[C@@H](NC(=O)[C@H](CCC(N)=O)NC(=O)[C@H](C)NC(=O)[C@H](C)NC(=O)[C@H](C)NC(=O)[C@H](CC1CCCCC1)NC(=O)[C@H](C)NC(=O)[C@@H](C)N)[C@@H](C)O)C(=O)N[C@@H](CCCCN)C(=O)N[C@@H](C)C(=O)N[C@@H](C)C(=O)N[C@H](C)C(N)=O [Peptide 906.25]

>  <measurement.kind>
IC50

>  <assay.value>
3

$$$$
>  <molecule>
CC[C@H](C)[C@H](NC(=O)[C@@H](NC(=O)[C@H](C)NC(=O)[C@H](C)NC(=O)[C@H](C)NC(=O)[C@H](C)NC(=O)[C@H](CC1CCCCC1)NC(=O)[C@H](C)NC(=O)[C@@H](C)N)[C@@H](C)O)C(=O)N[C@@H](CCCCN)C(=O)N[C@@H](C)C(=O)N[C@@H](C)C(=O)N[C@H](C)C(N)=O [Peptide 906.34]

>  <measurement.kind>
IC50

>  <assay.value>
3.1

$$$$

Let us move to another entry and its IC50.
get_value(item= CC(C)C[C@H](NC(=O)[C@@H](NC(=O)[C@H](C)NC(=O)[C@H](C)NC(=O)[C@H](C)NC(=O)[C@H](C)NC(=O)[C@H](CC1CCCCC1)NC(=O)[C@H](C)NC(=O)[C@@H](C)N)[C@@H](C)O)C(=O)N[C@@H](CCCCN)C(=O)N[C@@H](CCC(N)=O)C(=O)N[C@@H](C)C(=O)N[C@H](C)C(N)=O [Peptide 906.42] (H-[dA]A[Cha]AAAATLKQA[dA]-NH2; N-terminus and C-terminus assumed) , readout=IC50) returns 29.4

====

# key: entry, value: IC50
# measurement.target: IA^k (Mus musculus, UniProt P01910+P06343)
# Construct: Various cell lines were used as sources of purified human and mouse class II molecules; endogenous in cells
# Sequence (P01910 24-256): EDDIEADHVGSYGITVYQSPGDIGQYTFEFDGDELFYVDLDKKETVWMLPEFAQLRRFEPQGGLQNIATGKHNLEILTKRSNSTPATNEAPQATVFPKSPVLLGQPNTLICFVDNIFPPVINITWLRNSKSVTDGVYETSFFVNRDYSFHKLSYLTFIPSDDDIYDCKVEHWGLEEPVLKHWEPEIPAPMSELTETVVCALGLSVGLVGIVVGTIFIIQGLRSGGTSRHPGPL
# Sequence (P06343 28-263): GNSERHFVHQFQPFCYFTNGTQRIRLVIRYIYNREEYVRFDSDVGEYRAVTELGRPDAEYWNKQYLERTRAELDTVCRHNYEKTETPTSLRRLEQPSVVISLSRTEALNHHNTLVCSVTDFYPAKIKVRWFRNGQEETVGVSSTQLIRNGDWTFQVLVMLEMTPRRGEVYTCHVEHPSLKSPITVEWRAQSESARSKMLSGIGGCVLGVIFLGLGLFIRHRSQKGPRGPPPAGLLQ
# assay.summary: biochemical
# experimental.conditions: Table III; read-out: Capacity to bind purified IA^k, IC50
Value expressed in nM; do not type the unit.

>  <molecule.smiles>
CC[C@H](C)[C@H](NC(=O)CNC(=O)[C@H](Cc1ccc(O)cc1)NC(=O)[C@H](CC(=O)O)NC(=O)[C@@H](NC(=O)[C@H](CO)NC(=O)CNC(=O)[C@H](CC(=O)O)NC(=O)[C@@H](NC(=O)[C@@H](N)CC(N)=O)[C@@H](C)O)[C@@H](C)O)C(=O)N[C@@H](CC(C)C)C(=O)N[C@@H](CCC(N)=O)C(=O)N[C@H](C(=O)N[C@@H](CC(N)=O)C(=O)N[C@@H](CO)C(=O)N[C@@H](CCCNC(=N)N)C(=O)O)[C@@H](C)CC

>  <IC50 (nM)>
20

$$$$

Proceed to the following item.
Lab note: CC[C@H](C)[C@H](N)C(=O)N[C@@H](CO)C(=O)N[C@@H](CCC(N)=O)C(=O)N[C@@H](C)C(=O)N[C@H](C(=O)N[C@@H](Cc1c[nH]cn1)C(=O)N[C@@H](C)C(=O)N[C@@H](C)C(=O)N[C@@H](Cc1c[nH]cn1)C(=O)N[C@@H](C)C(=O)N[C@@H](CCC(=O)O)C(=O)N[C@H](C(=O)N[C@@H](CC(N)=O)C(=O)N[C@@H](CCC(=O)O)C(=O)O)[C@@H](C)CC)C(C)C gave IC50 of 1000

====

# Test system: DQ3.1
# experimental.conditions: read-out: PADRE Class II Binding Affinities; Table VIII A
Non-standard residues stand in square brackets, D forms with d. Residues, ends and D or L forms follow the SMILES beside them. Cha = N[C@@H](CC1CCCCC1)C(=O)O
Each item that follows carries a reported pIC50.
Quick note: pIC50 means taking -log10 of the concentration in moles per liter.

>  <molecule>
CC(C)C[C@H](NC(=O)[C@@H](NC(=O)[C@H](C)NC(=O)[C@H](C)NC(=O)[C@H](C)NC(=O)[C@H](C)NC(=O)[C@H](CC1CCCCC1)NC(=O)[C@H](C)NC(=O)[C@@H](C)N)[C@@H](C)O)C(=O)N[C@@H](CCC(=O)O)C(=O)N[C@@H](C)C(=O)N[C@@H](C)C(=O)N[C@H](C)C(N)=O [Peptide 906.35]

>  <measurement.target>
DQ3.1

>  <pIC50>
7.40

$$$$
>  <molecule>
CC(C)C[C@H](NC(=O)[C@@H](NC(=O)[C@H](C)NC(=O)[C@H](C)NC(=O)[C@H](C)NC(=O)[C@H](C)NC(=O)[C@H](CC1CCCCC1)NC(=O)[C@H](C)NC(=O)[C@@H](C)N)[C@@H](C)O)C(=O)N[C@@H](CCCCN)C(=O)N[C@@H](C)C(=O)N[C@H](C(=O)N[C@H](C)C(N)=O)C(C)C [Peptide 906.49] (H-[dA]A[Cha]AAAATLKAV[dA]-NH2; N-terminus and C-terminus assumed)

>  <measurement.target>
DQ3.1

>  <pIC50>
7.84

$$$$
>  <molecule>
CC(C)C[C@H](NC(=O)[C@@H](NC(=O)[C@H](CCC(N)=O)NC(=O)[C@H](C)NC(=O)[C@H](C)NC(=O)[C@H](C)NC(=O)[C@H](CC1CCCCC1)NC(=O)[C@H](C)NC(=O)[C@@H](C)N)[C@@H](C)O)C(=O)N[C@@H](CCCCN)C(=O)N[C@@H](C)C(=O)N[C@@H](C)C(=O)N[C@H](C)C(N)=O [Peptide 906.25]

>  <measurement.target>
DQ3.1

>  <pIC50>
7.37

$$$$

Lookup result for CC[C@H](C)[C@H](NC(=O)[C@H](CCCCN)NC(=O)[C@H](CC(C)C)NC(=O)[C@@H](NC(=O)[C@H](C)NC(=O)[C@H](C)NC(=O)[C@H](C)NC(=O)[C@H](C)NC(=O)[C@H](CC1CCCCC1)NC(=O)[C@H](C)NC(=O)[C@@H](C)N)[C@@H](C)O)C(=O)N[C@@H](C)C(=O)N[C@H](C)C(N)=O [Peptide 906.45] (H-[dA]A[Cha]AAAATLKIA[dA]-NH2; N-terminus and C-terminus assumed) ; measured pIC50: 7.25

# molecule CC(C)C[C@H](NC(=O)[C@@H](NC(=O)[C@H](CCCCN)NC(=O)[C@H](C)NC(=O)[C@H](C)NC(=O)[C@H](C)NC(=O)[C@H](CC1CCCCC1)NC(=O)[C@H](C)NC(=O)[C@@H](C)N)[C@@H](C)O)C(=O)N[C@@H](CCCCN)C(=O)N[C@@H](C)C(=O)N[C@@H](C)C(=O)N[C@H](C)C(N)=O [Peptide 906.23] ; its pIC50 = 7.58

Lab book: pIC50 of CC(C)C[C@H](NC(=O)[C@@H](NC(=O)[C@@H](NC(=O)[C@H](C)NC(=O)[C@H](C)NC(=O)[C@H](C)NC(=O)[C@H](CC1CCCCC1)NC(=O)[C@H](C)NC(=O)[C@@H](C)N)C(C)C)[C@@H](C)O)C(=O)N[C@@H](CCCCN)C(=O)N[C@@H](C)C(=O)N[C@@H](C)C(=O)N[C@H](C)C(N)=O [Peptide 906.26] (H-[dA]A[Cha]AAAVTLKAA[dA]-NH2; N-terminus and C-terminus assumed) noted as 7.55

Recorded result, C[C@H](NC(=O)[C@H](C)NC(=O)[C@H](C)NC(=O)[C@H](CC1CCCCC1)NC(=O)[C@H](C)NC(=O)[C@@H](C)N)C(=O)N[C@@H](C)C(=O)N[C@H](C(=O)N[C@@H](CCC(=O)O)C(=O)N[C@@H](CCCCN)C(=O)N[C@@H](C)C(=O)N[C@@H](C)C(=O)N[C@H](C)C(N)=O)[C@@H](C)O [Peptide 906.30] (H-[dA]A[Cha]AAAATEKAA[dA]-NH2; N-terminus and C-terminus assumed) , pIC50: 6.83

Form field pIC50, entry CC(C)C[C@H](NC(=O)[C@@H](NC(=O)[C@H](C)NC(=O)[C@H](CCC(N)=O)NC(=O)[C@H](C)NC(=O)[C@H](C)NC(=O)[C@H](CC1CCCCC1)NC(=O)[C@H](C)NC(=O)[C@@H](C)N)[C@@H](C)O)C(=O)N[C@@H](CCCCN)C(=O)N[C@@H](C)C(=O)N[C@@H](C)C(=O)N[C@H](C)C(N)=O [Peptide 906.20] (H-[dA]A[Cha]AAQATLKAA[dA]-NH2; N-terminus and C-terminus assumed) : 6.19

Lab note: measured pIC50 of CC(C)C[C@H](NC(=O)[C@@H](NC(=O)[C@H](C)NC(=O)[C@H](C)NC(=O)[C@H](C)NC(=O)[C@H](C)NC(=O)[C@H](CC1CCCCC1)NC(=O)[C@H](C)NC(=O)[C@@H](C)N)[C@@H](C)O)C(=O)N[C@@H](CCCCN)C(=O)N[C@@H](CCC(N)=O)C(=O)N[C@@H](C)C(=O)N[C@H](C)C(N)=O [Peptide 906.42] (H-[dA]A[Cha]AAAATLKQA[dA]-NH2; N-terminus and C-terminus assumed) was 6.32

Recorded result, CC(C)C[C@H](NC(=O)[C@@H](NC(=O)[C@H](Cc1ccccc1)NC(=O)[C@H](C)NC(=O)[C@H](C)NC(=O)[C@H](C)NC(=O)[C@H](CC1CCCCC1)NC(=O)[C@H](C)NC(=O)[C@@H](C)N)[C@@H](C)O)C(=O)N[C@@H](CCCCN)C(=O)N[C@@H](C)C(=O)N[C@@H](C)C(=O)N[C@H](C)C(N)=O [Peptide 906.27] , pIC50: 7.36

Every entry's value here was drawn from patent US6413935B1.
